target: Voltage-dependent T-type calcium channel subunit alpha-1G (Homo sapiens, UniProt O43497)
Sequence (O43497 whole entry): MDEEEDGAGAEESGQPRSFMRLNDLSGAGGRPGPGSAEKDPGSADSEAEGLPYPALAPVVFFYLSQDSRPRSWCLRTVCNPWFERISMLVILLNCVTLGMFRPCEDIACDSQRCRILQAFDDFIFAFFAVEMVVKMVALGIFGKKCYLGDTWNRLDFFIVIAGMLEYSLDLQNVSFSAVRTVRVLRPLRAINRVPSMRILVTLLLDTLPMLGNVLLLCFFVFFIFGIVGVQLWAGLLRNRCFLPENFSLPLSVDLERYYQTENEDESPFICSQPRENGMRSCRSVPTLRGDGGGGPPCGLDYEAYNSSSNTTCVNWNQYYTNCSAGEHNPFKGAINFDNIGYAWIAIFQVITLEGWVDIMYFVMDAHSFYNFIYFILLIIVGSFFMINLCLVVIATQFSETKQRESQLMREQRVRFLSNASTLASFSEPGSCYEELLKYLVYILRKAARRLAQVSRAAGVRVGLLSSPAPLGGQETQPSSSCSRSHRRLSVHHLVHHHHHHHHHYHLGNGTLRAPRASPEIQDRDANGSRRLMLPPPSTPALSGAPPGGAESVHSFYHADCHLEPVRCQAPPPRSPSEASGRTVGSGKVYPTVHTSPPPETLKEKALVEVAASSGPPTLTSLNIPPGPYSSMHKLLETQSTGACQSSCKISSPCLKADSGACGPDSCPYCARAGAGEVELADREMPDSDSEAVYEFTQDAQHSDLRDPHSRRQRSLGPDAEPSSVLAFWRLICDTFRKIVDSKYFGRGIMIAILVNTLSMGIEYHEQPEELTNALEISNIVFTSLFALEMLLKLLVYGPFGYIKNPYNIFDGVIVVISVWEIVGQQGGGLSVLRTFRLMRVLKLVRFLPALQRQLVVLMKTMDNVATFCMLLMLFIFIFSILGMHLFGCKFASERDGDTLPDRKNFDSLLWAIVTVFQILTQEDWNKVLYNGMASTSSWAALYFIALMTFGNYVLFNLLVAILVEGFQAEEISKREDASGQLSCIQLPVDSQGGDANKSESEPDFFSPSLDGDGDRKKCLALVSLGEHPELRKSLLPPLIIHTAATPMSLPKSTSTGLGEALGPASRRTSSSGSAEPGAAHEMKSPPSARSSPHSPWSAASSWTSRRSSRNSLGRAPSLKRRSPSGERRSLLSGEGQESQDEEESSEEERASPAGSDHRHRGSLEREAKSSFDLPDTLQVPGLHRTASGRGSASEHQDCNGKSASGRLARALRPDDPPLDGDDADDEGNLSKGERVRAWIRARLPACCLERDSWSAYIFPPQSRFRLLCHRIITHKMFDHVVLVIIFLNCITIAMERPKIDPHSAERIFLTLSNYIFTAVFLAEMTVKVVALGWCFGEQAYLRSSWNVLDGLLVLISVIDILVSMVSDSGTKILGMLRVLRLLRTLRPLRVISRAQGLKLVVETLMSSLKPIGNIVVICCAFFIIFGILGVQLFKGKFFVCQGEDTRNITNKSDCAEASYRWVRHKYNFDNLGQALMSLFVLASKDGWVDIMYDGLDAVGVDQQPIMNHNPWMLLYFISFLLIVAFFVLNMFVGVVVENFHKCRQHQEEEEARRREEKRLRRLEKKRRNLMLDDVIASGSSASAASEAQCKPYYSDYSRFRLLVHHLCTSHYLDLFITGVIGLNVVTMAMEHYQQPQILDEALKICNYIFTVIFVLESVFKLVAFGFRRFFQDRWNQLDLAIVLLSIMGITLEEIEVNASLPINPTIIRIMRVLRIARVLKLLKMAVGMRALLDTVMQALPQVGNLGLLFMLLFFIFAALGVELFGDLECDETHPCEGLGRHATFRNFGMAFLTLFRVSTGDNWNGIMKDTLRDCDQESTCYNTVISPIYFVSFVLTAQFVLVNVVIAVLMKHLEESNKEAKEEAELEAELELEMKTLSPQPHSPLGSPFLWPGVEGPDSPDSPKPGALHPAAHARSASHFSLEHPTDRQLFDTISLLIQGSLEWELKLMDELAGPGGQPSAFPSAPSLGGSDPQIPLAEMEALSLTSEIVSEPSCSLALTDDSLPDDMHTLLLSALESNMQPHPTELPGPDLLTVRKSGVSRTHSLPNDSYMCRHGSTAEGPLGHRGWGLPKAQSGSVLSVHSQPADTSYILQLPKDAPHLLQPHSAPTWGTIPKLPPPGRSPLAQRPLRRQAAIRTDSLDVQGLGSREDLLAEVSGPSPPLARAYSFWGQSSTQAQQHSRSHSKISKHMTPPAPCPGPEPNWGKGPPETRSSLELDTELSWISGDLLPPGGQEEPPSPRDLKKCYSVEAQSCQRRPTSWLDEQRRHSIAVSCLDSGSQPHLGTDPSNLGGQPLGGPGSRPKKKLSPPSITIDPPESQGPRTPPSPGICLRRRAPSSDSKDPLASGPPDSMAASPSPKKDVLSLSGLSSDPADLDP
test.details: Agonist activity at Cav3.1 (unknown origin) expressed in HEK293T cells assessed as increase in current amplitude at holding potential of -100 mV by whole cell patch-clamp electrophysiological method
measure.name: EC50 (µM)
The reply should be a number in µM, with the unit left off.

INPUT: Data request, read-out EC50, for `CC(C)C1=C/C(=C2\C(=O)C=C3C(C)(C)CCC[C@@]32C)OC1=O`
OUTPUT: 12.5

###

target: T-type calcium channel alpha 1G subunit (Mus musculus, UniProt Q27YN9)
Sequence (Q27YN9 whole entry): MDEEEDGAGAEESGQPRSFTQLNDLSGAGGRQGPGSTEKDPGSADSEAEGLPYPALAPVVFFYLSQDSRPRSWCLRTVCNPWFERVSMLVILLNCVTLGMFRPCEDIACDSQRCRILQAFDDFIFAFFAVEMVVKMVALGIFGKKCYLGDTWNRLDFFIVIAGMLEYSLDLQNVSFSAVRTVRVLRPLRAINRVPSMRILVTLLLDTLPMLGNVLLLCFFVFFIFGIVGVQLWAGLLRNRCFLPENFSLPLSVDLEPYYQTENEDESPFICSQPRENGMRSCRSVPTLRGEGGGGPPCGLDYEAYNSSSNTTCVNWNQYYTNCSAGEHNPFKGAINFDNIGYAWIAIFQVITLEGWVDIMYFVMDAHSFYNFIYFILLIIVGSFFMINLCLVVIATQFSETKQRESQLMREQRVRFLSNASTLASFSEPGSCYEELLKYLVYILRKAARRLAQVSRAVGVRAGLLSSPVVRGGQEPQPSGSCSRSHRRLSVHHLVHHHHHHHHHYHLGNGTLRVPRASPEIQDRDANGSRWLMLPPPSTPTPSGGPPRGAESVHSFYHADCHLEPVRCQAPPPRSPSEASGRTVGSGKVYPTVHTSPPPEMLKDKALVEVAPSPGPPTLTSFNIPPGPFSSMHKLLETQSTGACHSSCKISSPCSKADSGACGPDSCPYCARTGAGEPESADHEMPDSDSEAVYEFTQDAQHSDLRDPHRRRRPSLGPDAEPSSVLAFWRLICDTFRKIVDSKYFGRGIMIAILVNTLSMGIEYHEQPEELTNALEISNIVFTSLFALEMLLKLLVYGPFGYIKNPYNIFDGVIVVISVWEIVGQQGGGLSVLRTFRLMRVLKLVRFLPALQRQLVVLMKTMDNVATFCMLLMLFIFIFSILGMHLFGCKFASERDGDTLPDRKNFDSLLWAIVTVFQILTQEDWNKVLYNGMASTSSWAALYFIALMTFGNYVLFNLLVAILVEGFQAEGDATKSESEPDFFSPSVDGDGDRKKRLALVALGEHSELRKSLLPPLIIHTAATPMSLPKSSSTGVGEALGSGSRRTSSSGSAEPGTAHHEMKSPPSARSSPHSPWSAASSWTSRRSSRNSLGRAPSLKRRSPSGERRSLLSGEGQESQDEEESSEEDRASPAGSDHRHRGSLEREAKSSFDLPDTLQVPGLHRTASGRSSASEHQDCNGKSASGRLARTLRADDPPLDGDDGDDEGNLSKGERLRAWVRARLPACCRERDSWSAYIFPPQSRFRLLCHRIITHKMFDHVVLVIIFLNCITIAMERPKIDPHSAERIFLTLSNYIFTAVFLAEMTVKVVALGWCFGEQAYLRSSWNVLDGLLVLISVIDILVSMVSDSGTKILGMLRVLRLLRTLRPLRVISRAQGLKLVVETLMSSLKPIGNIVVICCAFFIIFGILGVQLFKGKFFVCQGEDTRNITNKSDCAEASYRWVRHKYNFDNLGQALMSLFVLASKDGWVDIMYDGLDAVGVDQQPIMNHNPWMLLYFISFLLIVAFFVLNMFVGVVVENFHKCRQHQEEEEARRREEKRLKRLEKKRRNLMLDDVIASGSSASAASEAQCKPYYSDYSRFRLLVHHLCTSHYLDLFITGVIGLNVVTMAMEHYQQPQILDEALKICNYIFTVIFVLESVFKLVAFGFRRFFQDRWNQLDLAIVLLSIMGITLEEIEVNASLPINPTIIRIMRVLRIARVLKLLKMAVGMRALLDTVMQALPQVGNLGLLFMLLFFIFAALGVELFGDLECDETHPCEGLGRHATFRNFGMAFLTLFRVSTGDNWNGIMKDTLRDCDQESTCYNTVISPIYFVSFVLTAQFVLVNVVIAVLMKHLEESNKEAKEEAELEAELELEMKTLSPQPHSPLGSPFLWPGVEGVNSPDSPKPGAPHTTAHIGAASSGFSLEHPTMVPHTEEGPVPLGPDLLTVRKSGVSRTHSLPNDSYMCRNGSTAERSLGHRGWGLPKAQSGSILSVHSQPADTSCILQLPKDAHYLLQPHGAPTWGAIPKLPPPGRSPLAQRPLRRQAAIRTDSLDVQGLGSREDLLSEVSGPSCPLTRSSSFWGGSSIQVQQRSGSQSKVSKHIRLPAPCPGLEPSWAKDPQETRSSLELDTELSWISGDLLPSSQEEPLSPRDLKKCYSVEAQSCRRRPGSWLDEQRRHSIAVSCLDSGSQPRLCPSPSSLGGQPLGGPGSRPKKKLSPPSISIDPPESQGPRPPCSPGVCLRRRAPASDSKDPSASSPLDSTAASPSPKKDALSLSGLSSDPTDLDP
test.details: Agonist activity at mouse Cav3.1 expressed in HEK293T cells assessed as increase in current amplitude at holding potential of -100 mV by whole cell electrophysiological method
measure.name: EC50 (µM)
// return numeric value only (unit: µM, not printed)

INPUT: Form field: reported EC50 of `CC(C)=CCC1(CC=C(C)C)C(=O)C(C(=O)c2ccccc2)=C2O[C@]3(C)CC[C@H]4C[C@@H]3[C@]2(C1=O)C4(C)C`
OUTPUT: 3.8

Values were extracted from ChEMBL document CHEMBL4354847.
